We begin with a simple list: items and their reported RLU.
Target: T1, human CD71 extracellular domain (human, UniProt P02786 89-760)
T1 construct: also called hCD71; CD71-ECD
T1 sequence (P02786 89-760): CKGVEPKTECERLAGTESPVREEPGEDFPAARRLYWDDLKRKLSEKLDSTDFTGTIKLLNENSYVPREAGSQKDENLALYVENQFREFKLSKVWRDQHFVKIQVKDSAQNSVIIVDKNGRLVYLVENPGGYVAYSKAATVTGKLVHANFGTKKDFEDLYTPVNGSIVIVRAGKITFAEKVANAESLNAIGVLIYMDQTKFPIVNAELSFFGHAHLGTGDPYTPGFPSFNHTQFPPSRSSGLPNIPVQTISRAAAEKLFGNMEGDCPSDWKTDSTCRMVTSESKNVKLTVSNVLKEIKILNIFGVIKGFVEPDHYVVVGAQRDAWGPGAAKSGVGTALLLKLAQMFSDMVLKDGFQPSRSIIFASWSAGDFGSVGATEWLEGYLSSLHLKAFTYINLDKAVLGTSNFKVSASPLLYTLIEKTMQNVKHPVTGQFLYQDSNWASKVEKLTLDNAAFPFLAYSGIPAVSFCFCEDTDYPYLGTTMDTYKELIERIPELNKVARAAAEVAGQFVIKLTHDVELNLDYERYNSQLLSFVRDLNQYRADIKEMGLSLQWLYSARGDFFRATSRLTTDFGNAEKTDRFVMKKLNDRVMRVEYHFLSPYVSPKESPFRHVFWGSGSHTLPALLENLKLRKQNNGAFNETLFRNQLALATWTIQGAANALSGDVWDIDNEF
Assay: primary ELISA; further: test concentration or dose not given here

>  <BINDER>
CD71-binding FN3 domain SEQ ID NO 431 (designed binder) MLPAPKNLVVSRVTEDSARLSWTAPDAAFDSFFIGYLEPQPPGEAIVLFVPGSERSYDLTGLKPGTEYNVTIQGVKGGFPSNPLSAISTT

>  <VALUE UNIT>
RLU

>  <RLU>
4.4e+06

$$$$
>  <BINDER>
CD71-binding FN3 domain SEQ ID NO 391 (designed binder) MLPAPKNLIVSRVTEDSARLSWTAPDAAFDSFFIGYLEPQPPGEAISLYVPGSERSYDLTGLKPGTEYNVTIQGVKGGFPSDPLQAIFTT

>  <VALUE UNIT>
RLU

>  <RLU>
2.78e+06

$$$$

Where do the numbers come from? From patent US20260151494A1.
